# system: Matrix metalloproteinase-9 (Homo sapiens)
# Sequence (P14780 whole entry): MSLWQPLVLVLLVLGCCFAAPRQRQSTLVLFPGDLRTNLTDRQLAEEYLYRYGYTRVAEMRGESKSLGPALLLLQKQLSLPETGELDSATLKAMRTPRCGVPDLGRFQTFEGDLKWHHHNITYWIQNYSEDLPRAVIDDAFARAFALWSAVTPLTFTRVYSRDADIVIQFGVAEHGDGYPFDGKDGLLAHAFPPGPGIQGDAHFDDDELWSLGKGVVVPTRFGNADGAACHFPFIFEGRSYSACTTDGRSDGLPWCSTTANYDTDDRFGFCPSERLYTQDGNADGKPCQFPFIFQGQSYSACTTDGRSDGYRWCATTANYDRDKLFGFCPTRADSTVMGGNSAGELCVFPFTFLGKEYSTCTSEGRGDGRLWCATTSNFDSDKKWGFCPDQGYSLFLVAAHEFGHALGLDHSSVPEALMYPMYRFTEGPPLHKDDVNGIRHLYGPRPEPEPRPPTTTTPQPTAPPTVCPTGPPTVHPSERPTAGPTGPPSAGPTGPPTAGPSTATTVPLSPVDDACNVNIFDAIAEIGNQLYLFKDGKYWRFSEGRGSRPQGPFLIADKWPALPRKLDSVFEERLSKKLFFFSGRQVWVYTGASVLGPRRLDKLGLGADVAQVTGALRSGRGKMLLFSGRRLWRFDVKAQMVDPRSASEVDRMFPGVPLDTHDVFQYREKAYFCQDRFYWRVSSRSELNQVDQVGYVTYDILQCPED
# test-description: Inhibition of human MMP9 by fluorometric assay
Overview of reported IC50 across a group of molecules:
parameter: IC50

structure-smiles	result
CCCCc1ccc(C#Cc2ccc(S(=O)(=O)N3CSC[C@H]3C(=O)NO)s2)cc1	21 nM
CCCCc1ccc(C#Cc2ccc(S(=O)(=O)N[C@H](Cc3c[nH]c4ccccc34)C(=O)NO)s2)cc1	77 nM
CCCCc1ccc(C#Cc2ccc(S(=O)(=O)NCC(=O)NO)s2)cc1	79 nM
CCCCc1ccc(C#Cc2ccc(S(=O)(=O)N[C@H](Cc3ccc(C(=O)c4ccccc4)cc3)C(=O)NO)s2)cc1	50 nM
CCCCc1ccc(C#Cc2ccc(S(=O)(=O)N3Cc4ccccc4C[C@@H]3C(=O)NO)s2)cc1	4.3 nM
CCCCc1ccc(C#Cc2ccc(S(=O)(=O)N[C@H](Cc3ccc(OCc4ccccc4)cc3)C(=O)NO)s2)cc1	63 nM
CCCCc1ccc(C#Cc2ccc(S(=O)(=O)N[C@H](Cc3csc4ccccc34)C(=O)NO)s2)cc1	650 nM

###

Target sequence: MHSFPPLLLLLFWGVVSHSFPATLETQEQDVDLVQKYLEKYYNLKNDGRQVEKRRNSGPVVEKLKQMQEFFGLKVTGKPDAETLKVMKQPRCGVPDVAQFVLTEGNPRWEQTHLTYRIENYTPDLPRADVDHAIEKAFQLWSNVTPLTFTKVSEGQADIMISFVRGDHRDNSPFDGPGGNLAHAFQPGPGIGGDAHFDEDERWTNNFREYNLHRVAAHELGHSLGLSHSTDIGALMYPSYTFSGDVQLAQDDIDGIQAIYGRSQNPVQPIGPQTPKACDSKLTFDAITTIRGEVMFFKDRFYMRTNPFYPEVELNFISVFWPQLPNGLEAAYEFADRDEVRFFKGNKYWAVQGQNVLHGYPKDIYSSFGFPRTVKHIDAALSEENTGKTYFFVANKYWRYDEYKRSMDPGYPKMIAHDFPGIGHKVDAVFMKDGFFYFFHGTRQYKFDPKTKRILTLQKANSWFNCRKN

structure-smiles	IC50
CCCCc1ccc(C#Cc2ccc(S(=O)(=O)N3CSC[C@H]3C(=O)NO)s2)cc1	21 µM
CCCCc1ccc(C#Cc2ccc(S(=O)(=O)NCC(=O)NO)s2)cc1	13 µM
CCCCc1ccc(C#Cc2ccc(S(=O)(=O)N[C@H](Cc3csc4ccccc34)C(=O)NO)s2)cc1	56 µM
CCCCc1ccc(C#Cc2ccc(S(=O)(=O)N[C@H](Cc3c[nH]c4ccccc34)C(=O)NO)s2)cc1	2.3 µM
